experiment: Toxicity in Balb/c mouse assessed as survival rate at 500 mg/kg, ip qd administered for 6 days followed by 1 week recovery (reference value: 100%); assay type: organism-based; conditions: in vivo
parameter_measured: survival (%)

INSERT INTO results (cpd_smiles, units_label, assay_result) VALUES
  ('COc1ccc(C(=O)c2ccc3c(ccn3Cc3ccc(C(=O)NO)cc3)c2)cc1', '%', 100);

====

Quick reference for pIC50 among some compounds
biological target: Histone deacetylase 3 (Homo sapiens)
Sequence (O15379 whole entry): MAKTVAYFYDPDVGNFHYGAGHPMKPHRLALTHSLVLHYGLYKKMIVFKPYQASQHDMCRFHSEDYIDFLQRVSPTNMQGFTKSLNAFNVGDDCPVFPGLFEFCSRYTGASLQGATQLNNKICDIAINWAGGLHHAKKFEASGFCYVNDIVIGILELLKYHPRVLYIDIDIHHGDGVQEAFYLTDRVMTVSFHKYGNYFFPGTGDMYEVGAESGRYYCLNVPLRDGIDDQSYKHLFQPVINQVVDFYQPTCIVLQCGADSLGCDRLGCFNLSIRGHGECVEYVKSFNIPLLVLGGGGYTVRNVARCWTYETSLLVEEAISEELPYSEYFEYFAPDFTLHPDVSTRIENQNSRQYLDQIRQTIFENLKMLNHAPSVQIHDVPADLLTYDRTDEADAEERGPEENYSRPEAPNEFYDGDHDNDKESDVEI
pIC50: −log10 of the molar value.
parameter_measured: pIC50

INSERT INTO assay_data (cpd_smiles, parameter_measured, operator_symbol, assay_result) VALUES
  ('O=C(NO)c1ccc(Cn2ccc3cc(C(=O)c4ccc(Cl)cc4)ccc32)cc1', 'pIC50', '=', 5.18),
  ('COc1ccc(C(=O)c2ccc3c(ccn3S(=O)(=O)c3cccc(/C=C/C(=O)NO)c3)c2)cc1', 'pIC50', '=', 6.63),
  ('Cc1ccc(C(=O)c2ccc3c(ccn3S(=O)(=O)c3cccc(/C=C/C(=O)NO)c3)c2)cc1', 'pIC50', '=', 6.05),
  ('COc1ccc(C(=O)c2ccc3c(ccn3S(=O)(=O)c3cccc(/C=C/C(=O)NO)c3)c2)cc1OC', 'pIC50', '=', 6.06),
  ('COc1ccc(C(=O)c2ccc3c(ccn3Cc3ccc(C(=O)NO)cc3)c2)cc1OC', 'pIC50', '=', 5.22),
  ('COc1ccc(C(=O)c2ccc3c(ccn3Cc3ccc(/C=C/C(=O)NO)cc3)c2)cc1', 'pIC50', '=', 5.69),
  ('COc1ccc(C(=O)c2ccc3c(ccn3Cc3ccc(C(=O)NO)cc3)c2)cc1', 'pIC50', '=', 5.38),
  ('COc1cc(C(=O)c2ccc3c(ccn3S(=O)(=O)c3cccc(/C=C/C(=O)NO)c3)c2)cc(OC)c1OC', 'pIC50', '<', 4.00);

====

organism: Homo sapiens; assay: Selectivity index, ratio of IC50 for human HDAC10 to IC50 for human HDAC6
parameter_measured: Ratio IC50

INSERT INTO results (cpd_smiles, parameter_measured, operator_symbol, assay_result) VALUES
  ('O=C(NO)c1ccc(Cn2ccc3cc(C(=O)c4ccc(F)cc4)ccc32)cc1', 'Ratio IC50', '>', 10800),
  ('Cc1ccc(C(=O)c2ccc3c(ccn3Cc3ccc(C(=O)NO)cc3)c2)cc1', 'Ratio IC50', '>', 8400),
  ('O=C(/C=C/c1cccc(S(=O)(=O)n2ccc3cc(C(=O)c4ccc(F)cc4)ccc32)c1)NO', 'Ratio IC50', '=', 3.7),
  ('O=C(NO)c1ccc(Cn2ccc3cc(C(=O)c4ccc(Cl)cc4)ccc32)cc1', 'Ratio IC50', '>', 14900),
  ('COc1cccc(C(=O)c2ccc3c(ccn3Cc3ccc(C(=O)NO)cc3)c2)c1', 'Ratio IC50', '=', 2920);

====

assay: Ratio of drug level in brain to plasma in Sprague-Dawley rat at 50 mg/kg, po after 3 hrs; format: ADME, organism-based; details: read-out: BPR
parameter_measured: Kp at 3 h

INSERT INTO results (cpd_smiles, parameter_measured, assay_result) VALUES
  ('COc1ccc(C(=O)c2ccc3c(ccn3Cc3ccc(C(=O)NO)cc3)c2)cc1', 'Kp at 3 h', 0.86);

====

experiment: Toxicity in Balb/c mouse assessed as survival rate at 1000 mg/kg, ip qd administered for 6 days followed by 1 week recovery (reference value: 100%); assay type: organism-based; settings: in vivo
parameter_measured: survival (%)

INSERT INTO measurements (cpd_smiles, assay_result) VALUES
  ('COc1ccc(C(=O)c2ccc3c(ccn3Cc3ccc(C(=O)NO)cc3)c2)cc1', 100);

====

organism: Homo sapiens; assay: Selectivity index, ratio of IC50 for human HDAC2 to IC50 for human HDAC6
Quick reference for Ratio IC50 among some molecules
parameter_measured: Ratio IC50

INSERT INTO results (cpd_smiles, operator_symbol, assay_result) VALUES
  ('COc1ccc(C(=O)c2ccc3c(ccn3S(=O)(=O)c3ccc(/C=C/C(=O)NO)cc3)c2)cc1', '>', 118),
  ('O=C(NO)c1ccc(Cn2ccc3cc(C(=O)c4ccc(F)cc4)ccc32)cc1', '=', 552),
  ('COc1ccc(C(=O)c2ccc3c(ccn3Cc3ccc(/C=C/C(=O)NO)cc3)c2)cc1', '=', 18.1),
  ('Cc1ccc(C(=O)c2ccc3c(ccn3S(=O)(=O)c3cccc(/C=C/C(=O)NO)c3)c2)cc1', '=', 2.6),
  ('COc1cccc(C(=O)c2ccc3c(ccn3Cc3ccc(C(=O)NO)cc3)c2)c1', '=', 313),
  ('COc1cccc(C(=O)c2ccc3c(ccn3S(=O)(=O)c3cccc(/C=C/C(=O)NO)c3)c2)c1', '=', 2.7),
  ('COc1ccc(C(=O)c2ccc3c(ccn3S(=O)(=O)c3cccc(/C=C/C(=O)NO)c3)c2)cc1', '=', 0.6),
  ('COc1ccc(C(=O)c2ccc3c(ccn3S(=O)(=O)c3cccc(/C=C/C(=O)NO)c3)c2)cc1OC', '=', 1.8),
  ('O=C(/C=C/c1cccc(S(=O)(=O)n2ccc3cc(C(=O)c4ccc(F)cc4)ccc32)c1)NO', '=', 1.3),
  ('COc1cc(C(=O)c2ccc3c(ccn3S(=O)(=O)c3ccc(/C=C/C(=O)NO)cc3)c2)cc(OC)c1OC', '=', 11.9);

====

organism: Homo sapiens; experiment: Selectivity index, ratio of IC50 for human HDAC10 to IC50 for human HDAC6
parameter_measured: Ratio IC50

INSERT INTO assay_data (cpd_smiles, parameter_measured, assay_result) VALUES
  ('COc1cc(C(=O)c2ccc3c(ccn3S(=O)(=O)c3ccc(/C=C/C(=O)NO)cc3)c2)cc(OC)c1OC', 'Ratio IC50', '> 103'),
  ('COc1ccc(C(=O)c2ccc3c(ccn3S(=O)(=O)c3ccc(/C=C/C(=O)NO)cc3)c2)cc1', 'Ratio IC50', '> 118'),
  ('COc1cc(C(=O)c2ccc3c(ccn3S(=O)(=O)c3cccc(/C=C/C(=O)NO)c3)c2)cc(OC)c1OC', 'Ratio IC50', '> 178');

====

species: Homo sapiens; assay: Selectivity index, ratio of IC50 for human HDAC1 to IC50 for human HDAC6
Quick reference for Ratio IC50 among some compounds
parameter_measured: Ratio IC50

INSERT INTO results (cpd_smiles, parameter_measured, assay_result) VALUES
  ('O=C(NO)c1ccc(Cn2ccc3cc(C(=O)c4ccc(Cl)cc4)ccc32)cc1', 'Ratio IC50', 710),
  ('Cc1ccc(C(=O)c2ccc3c(ccn3Cc3ccc(C(=O)NO)cc3)c2)cc1', 'Ratio IC50', 262),
  ('COc1cc(C(=O)c2ccc3c(ccn3S(=O)(=O)c3ccc(/C=C/C(=O)NO)cc3)c2)cc(OC)c1OC', 'Ratio IC50', 8.8),
  ('Cc1ccc(C(=O)c2ccc3c(ccn3S(=O)(=O)c3cccc(/C=C/C(=O)NO)c3)c2)cc1', 'Ratio IC50', 0.5),
  ('O=C(/C=C/c1cccc(S(=O)(=O)n2ccc3cc(C(=O)c4ccc(F)cc4)ccc32)c1)NO', 'Ratio IC50', 0.16),
  ('O=C(NO)c1ccc(Cn2ccc3cc(C(=O)c4ccc(F)cc4)ccc32)cc1', 'Ratio IC50', 357),
  ('COc1ccc(C(=O)c2ccc3c(ccn3S(=O)(=O)c3cccc(/C=C/C(=O)NO)c3)c2)cc1', 'Ratio IC50', 1.7),
  ('COc1cccc(C(=O)c2ccc3c(ccn3Cc3ccc(C(=O)NO)cc3)c2)c1', 'Ratio IC50', 231),
  ('COc1cc(C(=O)c2ccc3c(ccn3S(=O)(=O)c3cccc(/C=C/C(=O)NO)c3)c2)cc(OC)c1OC', 'Ratio IC50', 2.3);
